target: CYP-3A4 (Homo sapiens (Human), UniProt P08684); experiment: CYP panel profile: P450 inhibition, CYP-3A4; type: in vitro ADME; settings: human liver microsomes
Sequence (P08684 whole entry): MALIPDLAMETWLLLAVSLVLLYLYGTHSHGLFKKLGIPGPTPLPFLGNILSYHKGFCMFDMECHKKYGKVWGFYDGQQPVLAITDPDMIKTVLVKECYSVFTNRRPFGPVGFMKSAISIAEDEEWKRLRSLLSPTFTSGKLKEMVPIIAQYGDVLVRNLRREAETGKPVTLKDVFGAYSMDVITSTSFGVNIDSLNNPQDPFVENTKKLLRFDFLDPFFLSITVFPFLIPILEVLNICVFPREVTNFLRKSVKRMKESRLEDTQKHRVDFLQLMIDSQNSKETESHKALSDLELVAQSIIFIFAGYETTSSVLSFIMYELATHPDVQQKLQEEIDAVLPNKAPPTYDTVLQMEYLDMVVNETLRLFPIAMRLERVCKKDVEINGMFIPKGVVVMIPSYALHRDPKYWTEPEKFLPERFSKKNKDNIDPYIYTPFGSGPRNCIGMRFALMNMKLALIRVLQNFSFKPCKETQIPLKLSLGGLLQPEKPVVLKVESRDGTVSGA
Measurement Label: pIC50
When answering, recall that pIC50 equals minus log10 of the concentration in mol/L, and write that number alone.

Suppose we examine the compound COc1ccc(C(=O)n2c(-c3cccc4ccccc34)nc3cc(Cl)ccc32)cc1 [Compound 535] ; what pIC50 value has been reported?
6.70

Suppose we examine the compound O=S(=O)(c1ccc(C(F)(F)F)cc1)n1c(-c2cccc3ccccc23)nc2ccc(Cl)cc21 [Compound 782] ; what pIC50 value has been reported?
6.40

Suppose we examine the compound O=C(c1cccc2ccccc12)n1c(-c2cccc3ccccc23)nc2cc(Cl)ccc21 [Compound 704] ; what pIC50 value has been reported?
5.41

Suppose we examine the compound COC(=O)c1ccc2c(c1)nc(-c1cccc3ccccc13)n2C(=O)c1ccc(F)c(F)c1 [Compound 848] ; what pIC50 value has been reported?
4.86

Suppose we examine the compound O=C(c1ccccc1)n1c(-c2cccc3ccccc23)nc2ccc(Cl)cc21 [Compound 495] ; what pIC50 value has been reported?
5.28

Suppose we examine the compound O=C(c1ccc(F)c(F)c1)n1c(-c2cccc3ccccc23)nc2cc(Cl)ccc21 [Compound 529] ; what pIC50 value has been reported?
5.92

Suppose we examine the compound O=C(c1ccccc1)n1c(-c2cccc3ccccc23)nc2cc(OC(F)(F)F)ccc21 [Compound 703] ; what pIC50 value has been reported?
4.99

Suppose we examine the compound O=C(c1ccc(F)cc1)n1c(-c2cccc3ccccc23)nc2cc(Cl)ccc21 [Compound 586] ; what pIC50 value has been reported?
5.89

Suppose we examine the compound O=C(c1ccc(F)c(F)c1)n1c(-c2cccc3ccccc23)nc2cc(Cl)ccc21 [Compound 530] ; what pIC50 value has been reported?
5.43

* * *

Record form. Attribute: Fold relative to benchmark @ 100 nM. Fill in for each entry.
Target: aryl hydrocarbon receptor (AhR) (Mus musculus (Mouse), UniProt P30561)
Sequence (P30561 10-805): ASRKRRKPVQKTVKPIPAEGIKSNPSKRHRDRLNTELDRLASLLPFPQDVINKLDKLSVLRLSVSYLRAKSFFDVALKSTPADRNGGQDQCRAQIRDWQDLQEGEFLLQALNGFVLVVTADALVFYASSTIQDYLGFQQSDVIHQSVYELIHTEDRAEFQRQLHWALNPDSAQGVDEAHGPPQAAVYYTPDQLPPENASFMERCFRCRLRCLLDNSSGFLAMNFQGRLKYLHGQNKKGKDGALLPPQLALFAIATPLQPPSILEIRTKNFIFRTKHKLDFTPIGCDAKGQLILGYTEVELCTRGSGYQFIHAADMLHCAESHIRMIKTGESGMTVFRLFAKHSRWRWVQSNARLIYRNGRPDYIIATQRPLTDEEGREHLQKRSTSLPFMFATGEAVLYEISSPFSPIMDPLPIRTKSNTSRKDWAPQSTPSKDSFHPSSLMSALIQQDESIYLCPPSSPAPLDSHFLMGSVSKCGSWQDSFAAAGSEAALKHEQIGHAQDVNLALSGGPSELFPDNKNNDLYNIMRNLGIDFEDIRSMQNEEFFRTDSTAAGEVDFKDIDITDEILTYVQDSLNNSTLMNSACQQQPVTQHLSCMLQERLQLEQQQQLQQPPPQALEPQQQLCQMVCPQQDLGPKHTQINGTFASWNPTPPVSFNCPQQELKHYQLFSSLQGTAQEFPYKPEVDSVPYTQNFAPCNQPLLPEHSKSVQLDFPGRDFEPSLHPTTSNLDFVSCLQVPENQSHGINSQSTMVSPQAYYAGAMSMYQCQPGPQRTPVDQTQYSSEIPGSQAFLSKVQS
Sequence (P53762 whole entry partner): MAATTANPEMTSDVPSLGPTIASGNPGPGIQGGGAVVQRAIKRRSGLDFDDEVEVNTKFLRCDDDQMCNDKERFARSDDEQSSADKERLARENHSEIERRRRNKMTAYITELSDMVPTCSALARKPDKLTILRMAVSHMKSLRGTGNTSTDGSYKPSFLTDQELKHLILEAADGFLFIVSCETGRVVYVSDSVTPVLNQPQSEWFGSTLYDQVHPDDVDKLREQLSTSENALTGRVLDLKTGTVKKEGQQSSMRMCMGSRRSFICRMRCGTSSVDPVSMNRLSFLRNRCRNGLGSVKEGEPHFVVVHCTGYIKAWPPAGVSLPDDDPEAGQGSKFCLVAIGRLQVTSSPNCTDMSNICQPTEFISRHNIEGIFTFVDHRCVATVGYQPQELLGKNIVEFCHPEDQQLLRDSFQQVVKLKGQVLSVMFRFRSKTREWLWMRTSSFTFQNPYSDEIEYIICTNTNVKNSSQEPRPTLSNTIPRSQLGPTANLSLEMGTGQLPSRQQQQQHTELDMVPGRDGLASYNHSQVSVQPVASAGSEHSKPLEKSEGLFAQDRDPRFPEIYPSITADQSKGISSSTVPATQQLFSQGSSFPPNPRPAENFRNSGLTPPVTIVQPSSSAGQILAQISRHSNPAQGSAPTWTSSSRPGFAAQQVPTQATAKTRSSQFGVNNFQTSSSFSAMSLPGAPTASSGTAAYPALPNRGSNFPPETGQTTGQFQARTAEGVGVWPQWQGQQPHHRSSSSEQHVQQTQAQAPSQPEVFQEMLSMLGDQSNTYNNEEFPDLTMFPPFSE
Assay: AhR ligand screening: AhRE-luciferase reporter in transfected Hepa1 cells
Assay type: cell-based
Settings: luciferase expression at 100 nM test compound relative to 100 nM benchmark compound 11-cl-BBQ
From the text: The AhR is a ligand-activated transcription factor that dimerizes with ARNT to regulate gene expression, and genes that are regulated by AhR ligands have AhR response elements (AhRE) in their promotor regions. Briefly, Hepa1 cells were transfected with a reporter construct consisting of AhRE linked to luciferase. […] Data were expressed as fold induction of luciferase relative to vehicle (0.1% DMSO) treated cells.
The reply should be a number in fold, with the unit left off.

Fill in the recorded Fold relative to benchmark @ 100 nM for this molecule, with aryl hydrocarbon receptor (AhR) (Mus musculus (Mouse), UniProt P30561) as test system: `O=C(c1ccc(SC(F)(F)F)cc1)n1c(-c2cccc3ccccc23)nc2cc(Cl)ccc21`
0.92

Fill in the recorded Fold relative to benchmark @ 100 nM for this molecule, with aryl hydrocarbon receptor (AhR) (Mus musculus (Mouse), UniProt P30561) as test system: `O=C(c1ccc2c(c1)nc(-c1cccc3ccccc13)n2S(=O)(=O)c1ccc2ccccc2c1)N1CCCCC1`
0.03

Fill in the recorded Fold relative to benchmark @ 100 nM for this molecule, with aryl hydrocarbon receptor (AhR) (Mus musculus (Mouse), UniProt P30561) as test system: `CN1CCN(C(=O)c2ccc3nc(-c4cccc5ccccc45)n(Cc4ccc(F)c(F)c4)c3c2)CC1`
0.03

Fill in the recorded Fold relative to benchmark @ 100 nM for this molecule, with aryl hydrocarbon receptor (AhR) (Mus musculus (Mouse), UniProt P30561) as test system: O=C(c1cccc2ccccc12)C1CN(C(=O)c2ccccc2)c2ccc(Cl)cc21 (stereo not shown)
0.07

Fill in the recorded Fold relative to benchmark @ 100 nM for this molecule, with aryl hydrocarbon receptor (AhR) (Mus musculus (Mouse), UniProt P30561) as test system: `Clc1ccc2[nH]c(-c3cccc4ccccc34)cc2c1`
0.91

Fill in the recorded Fold relative to benchmark @ 100 nM for this molecule, with aryl hydrocarbon receptor (AhR) (Mus musculus (Mouse), UniProt P30561) as test system: `N#Cc1ccc(C(=O)n2c(-c3cccc4ccccc34)nc3ccc(Cl)cc32)cc1`
1.08

Fill in the recorded Fold relative to benchmark @ 100 nM for this molecule, with aryl hydrocarbon receptor (AhR) (Mus musculus (Mouse), UniProt P30561) as test system: `O=C(c1ccccc1)n1c(-c2cc3ccccc3o2)nc2ccc(Cl)cc21`
0.33

Fill in the recorded Fold relative to benchmark @ 100 nM for this molecule, with aryl hydrocarbon receptor (AhR) (Mus musculus (Mouse), UniProt P30561) as test system: `O=C(c1ccc(C(F)(F)F)cc1)c1c[nH]c2ccc(Cl)cc12`
0.02

Fill in the recorded Fold relative to benchmark @ 100 nM for this molecule, with aryl hydrocarbon receptor (AhR) (Mus musculus (Mouse), UniProt P30561) as test system: `O=C(c1cc2cc(Cl)ccc2o1)c1cccc2ccccc12`
0.03

Fill in the recorded Fold relative to benchmark @ 100 nM for this molecule, with aryl hydrocarbon receptor (AhR) (Mus musculus (Mouse), UniProt P30561) as test system: `Clc1ccc2c(c1)nc(-c1cccc3ccccc13)n2Cc1ccnc2ccccc12`
0.07

Fill in the recorded Fold relative to benchmark @ 100 nM for this molecule, with aryl hydrocarbon receptor (AhR) (Mus musculus (Mouse), UniProt P30561) as test system: `O=C(c1ccccc1)n1c(-c2cccc(C(F)(F)F)c2)nc2ccc(Cl)cc21`
0.12

Fill in the recorded Fold relative to benchmark @ 100 nM for this molecule, with aryl hydrocarbon receptor (AhR) (Mus musculus (Mouse), UniProt P30561) as test system: `Cc1ccc(C(=O)n2c(-c3cccc4ccccc34)nc3cc(Cl)ccc32)cc1`
0.88

Fill in the recorded Fold relative to benchmark @ 100 nM for this molecule, with aryl hydrocarbon receptor (AhR) (Mus musculus (Mouse), UniProt P30561) as test system: `COc1ccc2c(c1)nc(-c1cccc3ccccc13)n2C(=O)c1ccccc1`
0.11
